Biological target: T1, Biotinylated human BSSL (human, UniProt P19835 21-753, Biotinylated on glycosacarides, 30-40 biotin/BSSL)
T1 construct: hBSSL biotinylated in house; also called b-hBSSL; human BSSL-biotin
T1 sequence: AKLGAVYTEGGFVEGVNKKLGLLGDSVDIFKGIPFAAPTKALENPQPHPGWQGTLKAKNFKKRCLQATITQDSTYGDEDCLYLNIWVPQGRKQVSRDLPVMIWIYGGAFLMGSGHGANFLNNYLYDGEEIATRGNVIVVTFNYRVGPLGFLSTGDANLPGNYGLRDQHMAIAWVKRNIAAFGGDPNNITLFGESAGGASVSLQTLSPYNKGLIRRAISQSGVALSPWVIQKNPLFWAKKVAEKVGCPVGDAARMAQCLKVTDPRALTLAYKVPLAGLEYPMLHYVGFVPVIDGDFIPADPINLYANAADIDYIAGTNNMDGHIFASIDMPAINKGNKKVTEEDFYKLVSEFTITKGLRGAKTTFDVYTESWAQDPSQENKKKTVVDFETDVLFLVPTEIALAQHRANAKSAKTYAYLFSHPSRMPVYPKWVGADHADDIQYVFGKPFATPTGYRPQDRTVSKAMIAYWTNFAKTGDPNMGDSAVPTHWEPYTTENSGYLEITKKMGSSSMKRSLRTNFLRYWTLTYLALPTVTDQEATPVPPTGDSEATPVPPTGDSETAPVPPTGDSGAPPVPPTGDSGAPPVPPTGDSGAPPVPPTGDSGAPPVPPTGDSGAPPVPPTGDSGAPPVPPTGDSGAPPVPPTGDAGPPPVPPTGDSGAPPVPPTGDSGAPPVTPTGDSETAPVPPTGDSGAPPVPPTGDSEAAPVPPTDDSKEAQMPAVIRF
Assay: flow cytometry displacement assay; 1.0 ug antibody, 1 ug b-hBSSL
Recorded percentage reduction of b-hBSSL binding to CD14+ monocytes, one value per entry.
// return numeric value only (unit: %, not printed)

Solved entries (count: 2):
S-SL048-66 hIgG4 S228P (antibody, V domains shown, Tested as human IgG4 S228P) VH: QVQLVQSGAEVKKPGASVKVSCKASGYTFTSYNMHWVRQAPGQGLEWMGVINPGDGATSYNQKFKGRVTMTRDTSTSTVYMELSSLRSEDTAVYYCARDYYGSSPLGYWGQGTLVTVSS VL: DIQMTQSPSSLSASVGDRVTITCSASQSISYMNWYQQKPGKAPKLLIYDASSLASGVPSRFSGSGSGTDFTLTISSLQPEDFATYYCHQRSSTPTFGQGTKLEIK
12
AS20 mouse IgG1 (antibody, V domains shown, also called AS20 mlgG1; AS20 mIgG1) VH: QVQLQQPGAELVKPGASVKMSCKASGYTFTSYNMHWVKQTPGQGLEWIGVIYPGNGDTSYNQKFKGKATLTADKSSSTAYMQLSSLTSEDSAVYYCARDYYGSSPLGYWGQGTTLTVSS VL: QIVLTQSPAVMSASPGEKVTMTCSASSSISYMHWYQQKPGTSPKRWIYDTSKLASGVPARFSGSGSGTSYSLTISSMEAEDAATYYCHQRSSYPTFGGGTKLEIK
66

Attention now turns to another entry.
Item S-SL048-48 hIgG4 S228P (antibody, V domains shown, Tested as human IgG4 S228P) VH: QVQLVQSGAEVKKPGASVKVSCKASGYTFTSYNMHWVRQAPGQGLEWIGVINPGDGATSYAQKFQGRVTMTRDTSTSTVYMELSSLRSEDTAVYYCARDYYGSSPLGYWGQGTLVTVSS VL: DIQMTQSPSSLSASVGDRVTITCRASPSISYMNWYQQKPGKAPKLLIYATSRLQSGVPSRFSGSGSGTDFTLTISSLQPEDFATYYCHQRSSSPTFGQGTKLEIK has what recorded percentage reduction of b-hBSSL binding to CD14+ monocytes?
23
